- Tested on: LCLC-103H
- assay-text: relative viability (nuclei count vs DMSO), 5 days (fraction); higher = more cells survive
- test-conditions: first compound 0.08 µM
Kindly apply the following: 1 if relative viability is less than 0.7, -1 in every other case.

>>> classification("Oc1nc(-c2ccc(C(F)(F)F)cc2)nc2c1CSCC2 [XAV939] + COc1cc2c(Oc3ccc(NC(=O)C4(C(=O)Nc5ccc(F)cc5)CC4)cc3F)ccnc2cc1OCCCN1CCOCC1 [Foretinib] (partner 0.25 µM)")
-1
>>> classification("C=C1C(=O)O[C@@H](CCCCCCCC)[C@@H]1C(=O)O [C-75] + O=C(c1cc(Cc2n[nH]c(=O)c3ccccc23)ccc1F)N1CCN(C(=O)C2CC2)CC1 [Olaparib] (partner 8 µM)")
-1
>>> classification("Oc1nc(-c2ccc(C(F)(F)F)cc2)nc2c1CSCC2 [XAV939] + Cc1nc(NC(=O)N2CCC[C@H]2C(N)=O)sc1-c1ccnc(C(C)(C)C(F)(F)F)c1 [Alpelisib] (partner 2 µM)")
-1
>>> classification("C=C1C(=O)O[C@@H](CCCCCCCC)[C@@H]1C(=O)O [C-75] + Nc1nc2[nH]cc(CCc3ccc(C(=O)N[C@@H](CCC(=O)O)C(=O)O)cc3)c2c(=O)[nH]1 [Pemetrexed] (partner 0.2 µM)")
1
>>> classification("C=C1C(=O)O[C@@H](CCCCCCCC)[C@@H]1C(=O)O [C-75] + O=C(CCCCCCC(=O)Nc1ccccc1)NO [Vorinostat] (partner 1 µM)")
-1
>>> classification("C=C1C(=O)O[C@@H](CCCCCCCC)[C@@H]1C(=O)O [C-75] + Cc1nc(NC(=O)N2CCC[C@H]2C(N)=O)sc1-c1ccnc(C(C)(C)C(F)(F)F)c1 [Alpelisib] (partner 2 µM)")
-1
>>> classification("C=C1C(=O)O[C@@H](CCCCCCCC)[C@@H]1C(=O)O [C-75] + CC(C)C[C@H](NC(=O)[C@H](Cc1ccccc1)NC(=O)c1cnccn1)B(O)O [Bortezomib] (partner 0.002 µM)")
-1
>>> classification("C=C1C(=O)O[C@@H](CCCCCCCC)[C@@H]1C(=O)O [C-75] + N=C(N)NC(=N)NCCc1ccccc1 [Phenformin] (partner 250 µM)")
1

====

- Tested on: NCI-H838
- assay-text: relative viability (nuclei count vs DMSO), 5 days (fraction); higher = more cells survive
- test-conditions: first compound 0.3162 µM
This listing pairs compounds with measured relative viability.
measured-endpoint: relative viability

>>> reported_result("NC(=O)Nc1cc(-c2cccc(F)c2)sc1C(=O)N[C@H]1CCCNC1 [AZD7762] + CC(=O)c1c(C)c2cnc(Nc3ccc(N4CCNCC4)cn3)nc2n(C2CCCC2)c1=O [Palbociclib] (partner 0.5 µM)")
0.221
>>> reported_result("NC(=O)Nc1cc(-c2cccc(F)c2)sc1C(=O)N[C@H]1CCCNC1 [AZD7762] + Nc1ncn([C@H]2C[C@H](O)[C@@H](CO)O2)c(=O)n1 [Decitabine] (partner 2 µM)")
0.454
>>> reported_result("NC(=O)Nc1cc(-c2cccc(F)c2)sc1C(=O)N[C@H]1CCCNC1 [AZD7762] + O=C(c1cc(Cc2n[nH]c(=O)c3ccccc23)ccc1F)N1CCN(C(=O)C2CC2)CC1 [Olaparib] (partner 8 µM)")
0.493
>>> reported_result("NC(=O)Nc1cc(-c2cccc(F)c2)sc1C(=O)N[C@H]1CCCNC1 [AZD7762] + Cc1cc(Nc2cc(N3CCN(C)CC3)nc(Sc3ccc(NC(=O)C4CC4)cc3)n2)n[nH]1 [Tozasertib] (partner 0.1 µM)")
0.187
>>> reported_result("NC(=O)Nc1cc(-c2cccc(F)c2)sc1C(=O)N[C@H]1CCCNC1 [AZD7762] + C[C@@H](Oc1cc(-c2cnn(C3CCNCC3)c2)cnc1N)c1c(Cl)ccc(F)c1Cl [Crizotinib] (partner 1 µM)")
0.687

Values were extracted from the supplement of paper PMC10307832.
